# methodDescription: pKa value was determined
# Type: physicochemical
quantityKind: pKa
Just the number, please, no unit after it.

Take a look at these entries with their results.
>>> print(df.to_string())
                                   molecule  reportedresult
0  COc1ccccc1NC1Oc2ccccc2C=C1[N+](=O)[O-] (stereo unspecified)            2.52
1  O=[N+]([O-])C1=Cc2ccccc2OC1N1CCOCC1 (stereo unspecified)            8.33
2  O=[N+]([O-])C1=Cc2ccccc2OC1Nc1ccccc1[N+](=O)[O-] (stereo unspecified)           -0.26
3  O=[N+]([O-])C1=Cc2ccccc2OC1Nc1ccc([N+](=O)[O-])cc1 (stereo unspecified)               1
4  COc1ccc(NC2Oc3ccccc3C=C2[N+](=O)[O-])cc1 (stereo unspecified)            5.31

Now consider the entry below.
Using the record for O=[N+]([O-])C1=Cc2ccccc2OC1n1cccn1 (stereo unspecified) , report its pKa.
2.48

###

# methodDescription: pKa value was determined
# Format: physicochemical
Readings of pKa for the listed molecules
// return just the number, without any unit appended

Recorded results for 2 molecules are shown here.
In [3]: df
Out[3]:
                                   molecule  quantitykind  reportedresult
0  O=[N+]([O-])C1=Cc2ccccc2OC1Nc1cccc([N+](=O)[O-])c1 (stereo not drawn)           pKa            2.47
1  O=[N+]([O-])C1=Cc2ccccc2OC1Nc1ccccc1 (stereo not drawn)           pKa             4.4

What value of measured pKa is listed for COc1cccc(NC2Oc3ccccc3C=C2[N+](=O)[O-])c1 (stereo not drawn) ?
4.2

###

# methodDescription: Inhibitory activity against phospholipase C isolated from human melanoma
Each record is given class 1 if its reported IC50 is strictly below 20 µg/mL. Records at or above 20 µg/mL are given class 0.

Worked cases, answers included:
                                   compound  classassignment
0   CC(=O)Oc1ccc2oc(=O)c([N+](=O)[O-])cc2c1          class 1
1  O=[N+]([O-])C1=Cc2ccccc2OC1Nc1ccc([N+](=O)[O-])cc1 (centres undefined)          class 1
2  CCCCCCCCCCCCOc1ccc2oc(=O)c([N+](=O)[O-])cc2c1          class 0
3  O=[N+]([O-])C1=Cc2ccccc2OC1n1cccn1 (centres undefined)          class 0
4              O=c1oc2ccccc2cc1[N+](=O)[O-]          class 1

Is the reported IC50 for `CCCCCCCCCCCCCCCC(=O)Oc1cccc2cc([N+](=O)[O-])c(=O)oc12` strictly below 20 µg/mL?
class 0

Just wondering, is IC50 of `CCCCOc1ccc2oc(=O)c([N+](=O)[O-])cc2c1` below 20 µg/mL?
class 0

###

# methodDescription: Inhibitory activity against phospholipase C isolated from human melanoma
quantityKind: IC50 (µg/mL)
// note: answer is a bare numeric in µg/mL

>>> print(df.to_string())
                                   compound  reportedresult
0  C=CCCCCCCCCOc1ccc2oc(=O)c([N+](=O)[O-])cc2c1            45.1
1    CC(C)Oc1ccc2oc(=O)c([N+](=O)[O-])cc2c1            23.5
2           O=c1oc2c(O)cccc2cc1[N+](=O)[O-]            24.8
3  O=[N+]([O-])C1=Cc2ccccc2OC1N1CCOCC1 (stereo unspecified)               5

Bench note: what IC50 did `CCCCCCCC(=O)Oc1cccc2cc([N+](=O)[O-])c(=O)oc12` show?
17

Could you tell me which IC50 is on file for `CCCCCCCCCCCCCCCC(=O)Oc1ccc2oc(=O)c([N+](=O)[O-])cc2c1` ?
28.5

Recorded IC50 of COc1ccccc1NC1Oc2ccccc2C=C1[N+](=O)[O-] (stereo unspecified) , please.
4.5

Can you share its IC50? I mean this compound: COc1ccc(NC2Oc3ccccc3C=C2[N+](=O)[O-])cc1 (stereo unspecified)
12.9

Recorded IC50 of O=[N+]([O-])C1=Cc2ccccc2OC1Nc1ccccc1 (stereo unspecified) , please.
11.7

I am curious: what IC50 value has been reported for `CC(=O)Oc1cccc2cc([N+](=O)[O-])c(=O)oc12` ?
36

Returns the measured IC50 for the input compound. Input: O=[N+]([O-])C1=Cc2ccccc2OC1Nc1cccc([N+](=O)[O-])c1 (stereo unspecified)
7.5
